# Test system: neurotoxicity (rotarod)
# Measurement Notes: Neurotoxicity test (TOX), rotarod, mice
# Type: in vivo
# Test Context: mice, dose 300 mg/kg b.w., 0.5 h
Structures can show the parent of a compound that is named as a salt.
Here, each record is paired with measured TOX, No. of animals exhibiting motor impairment/no. of used animals data.
Observable: TOX, No. of animals exhibiting motor impairment/no. of used animals

Compound | Reported Result
Cc1cccc(Cl)c1OCC(=O)N[C@@H](C)CO | 4/4
Cc1cccc(C)c1OCC(=O)N[C@H]1CC[C@H](O)CC1 | 4/4
Cc1cc(Cl)ccc1OCC(=O)NCC(O)c1ccccc1 (stereo not shown) | 4/4
CCC(O)CNC(=O)COc1c(C)cccc1Cl (stereo not shown) | 4/4
Cc1cc(C)c(OCC(=O)NCC(O)c2ccccc2)c(C)c1 (stereo not shown) | 4/4
Cc1cccc(Cl)c1OCC(=O)N[C@H](C)CO | 3/4
Cc1cccc(Cl)c1OCC(=O)NC(C)CO (stereo not shown) | 1/4
Cc1cccc(C)c1OCC(=O)N[C@@H](C)CO | 3/4
Cc1cccc(C)c1OCCCN[C@H](C)CO [Compound 52, hydrochloride] | 3/4
Cc1cccc(Cl)c1OCC(=O)NCC(C)O (stereo not shown) | 4/4

###

# System: neurotoxicity (rotarod)
# Measurement Notes: Neurotoxicity test (TOX), rotarod, mice
# Format: in vivo
# Test Context: mice, dose 30 mg/kg b.w., time 0.5 h
Counter-ions that a name gives are not always drawn.
Observable: TOX, No. of animals exhibiting motor impairment/no. of used animals

Compound | Reported Result
CCC(CO)NCCOc1c(C)cccc1Cl.Cl (centres unmarked) [Compound 26a] | 3/4
Cc1cc(C)c(C)c(OCCNCC(O)c2ccccc2)c1.Cl (centres unmarked) [Compound 42] | 3/4
Cc1cccc(C)c1OCCNC(C)(C)CCO [Compound 15, hydrochloride] | 4/4
Cc1cccc(C)c1OCCNCC(O)c1ccccc1 (centres unmarked) [Compound 19] | 1/4
Cc1cccc(C)c1OCCNC[C@@H](C)O [Compound 10] | 1/4
Cc1cccc(OCCCNCC(O)c2ccccc2)c1C (racemic) [Compound 49] | 1/4
Cc1cc(C)c(OCCN[C@H](C)CO)c(C)c1 [Compound 43] | 3/4
CCC(O)CNCCOc1ccc(Cl)cc1C (centres unmarked) [Compound 34] | 1/4

###

Here, each record is paired with measured TOX, No. of animals exhibiting motor impairment/no. of used animals data.
# System: neurotoxicity (rotarod)
# Measurement Notes: Neurotoxicity test (TOX), rotarod, mice
# Type: in vivo
# Test Context: mice, dose 300 mg/kg b.w., 0.5 h
Observable: TOX, No. of animals exhibiting motor impairment/no. of used animals

Compound | Reported Result
CCC(O)CNC(=O)COc1ccc(Cl)cc1C (stereo not shown) | 4/4
CCC(NC(=O)COc1c(C)cccc1Cl)C(N)=O (racemic) | 1/4
Cc1cccc(Cl)c1OCC(=O)NCCCC(=O)O | 1/4
CCC(O)CNC(=O)COc1c(C)cccc1C (stereo not shown) | 4/4
Cc1cccc(Cl)c1OCCCNC(C)CO (racemic) | 4/4
Cc1cccc(C)c1OCCCNCC(O)c1ccccc1 (racemic) | 4/4
CCC(CO)NCCCOc1c(C)cccc1Cl.Cl (racemic) | 4/4
Cc1cc(Cl)ccc1OCC(=O)NCC(C)O (stereo not shown) | 4/4
Cc1cccc(C)c1OCC(=O)NC(C)CO (stereo not shown) | 4/4
Cc1cccc(C)c1OCC(=O)N[C@H](C)C(N)=O | 1/4

###

Here, each record is paired with measured TOX, No. of animals exhibiting motor impairment/no. of used animals data.
# Test system: neurotoxicity (rotarod)
# Measurement Notes: Neurotoxicity test (TOX), rotarod, mice
# Assay type: in vivo
# Test Context: mice, dose 100 mg/kg b.w., 0.5 h
Where a name gives a salt, the structure may show the parent alone.
Observable: TOX, No. of animals exhibiting motor impairment/no. of used animals

Compound | Reported Result
CNC(=O)C(C)NC(=O)COc1c(C)cccc1C (racemic) [Compound 67] | 1/8
Cc1cccc(C)c1OCC(=O)N[C@H]1CC[C@H](O)CC1 [Compound 64] | 7/8
Cc1cc(Cl)ccc1OCC(=O)NCC(O)c1ccccc1 (stereo not drawn) [Compound 82] | 2/8
Cc1cccc(Cl)c1OCC(=O)NC(C)CO (stereo not drawn) [Compound 69] | 1/8
Cc1cccc(C)c1OCCCNC(C)(C)CO [Compound 53] | 8/8
Cc1cccc(C)c1OCC(=O)N[C@H](C)C(N)=O [Compound 65] | 2/8
Cc1cccc(Cl)c1OCCCNC(C)CO (racemic) [Compound 57] | 8/8
Cc1cccc(C)c1OCCCNCC(O)c1ccccc1 (racemic) [Compound 56] | 8/8
Cc1cccc(C)c1OCC(=O)N[C@@H](C)CO [Compound 62] | 3/8
Cc1cccc(C)c1OCC(=O)NC(C)CO (stereo not drawn) [Compound 60] | 2/8
Cc1cccc(C)c1OCCCN[C@H](C)CO [Compound 52, hydrochloride] | 6/8
CCC(CO)NCCCOc1c(C)cccc1Cl.Cl (racemic) [Compound 58] | 6/8

###

# Test system: maximal electroshock seizures
# Measurement Notes: Maximum Electroshock Seizure (MES) test, mice
# Assay type: in vivo
# Test Context: mice, dose 100 mg/kg b.w., time 0.5 h
Here, each record is paired with measured MES, No. of protected animals/No. of used animals data.
Observable: MES, No. of protected animals/No. of used animals

Molecule | Reported Result
Cc1cc(Cl)ccc1OCCNC(C)(C)CO [Compound 36] | 3/3
CCC(CO)NCCOc1cc(C)ccc1C (stereo not shown) [Compound 8] | 3/3
CCC(CO)NCCOc1ccc(Cl)cc1C (stereo not shown) [Compound 35] | 3/3
Cc1cccc(C)c1OCCN[C@@H]1CCCC[C@H]1O (relative stereo) [Compound 18] | 3/3
Cc1cccc(C)c1OCCCNCC(C)O (racemic) [Compound 50] | 3/3
Cc1cccc(Cl)c1OCCN[C@@H]1CCCC[C@H]1O (relative stereo) [Compound 30] | 1/1
Cc1ccc(C)c(OCCNCC(C)O)c1 (stereo not shown) [Compound 5] | 3/3
CC[C@@H](CO)NCCOc1c(C)cccc1Cl [Compound 28] | 1/1
Cc1cc(C)c(OCCNCC(O)c2ccccc2)c(C)c1 (stereo not shown) [Compound 45] | 3/3
CCC(O)CNCCOc1ccc(Cl)cc1C (stereo not shown) [Compound 34] | 3/3
Cc1cccc(C)c1OCCNC(C)CO.Cl (stereo not shown) [Compound 11a] | 1/1
CCC(CO)NCCOc1c(C)cccc1Cl.Cl (stereo not shown) [Compound 26a] | 1/1
Cc1cccc(OCCCNC(C)CO)c1C (racemic) [Compound 46] | 3/3
CCC(CO)NCCOc1cc(C)cc(C)c1C (stereo not shown) [Compound 39] | 3/3
Cc1cccc(Cl)c1OCCNCC(O)c1ccccc1 (stereo not shown) [Compound 31] | 3/3
Cc1cccc(C)c1OCCNC[C@@H](O)c1ccccc1 [Compound 21] | 3/3
CCC(O)CNCCOc1cc(C)ccc1C (stereo not shown) [Compound 7] | 3/3
Cc1cccc(C)c1OCCNCC(O)c1ccccc1 (stereo not shown) [Compound 19] | 3/3
CC[C@H](CO)NCCOc1c(C)cccc1Cl.Cl [Compound 27a] | 2/3
Cc1cccc(Cl)c1OCCNC(C)CO (stereo not shown) [Compound 24] | 3/3
CC[C@@H](CO)NCCOc1c(C)cccc1Cl.Cl [Compound 28a] | 1/1
Cc1cccc(C)c1OCCN[C@@H](C)CO.Cl [Compound 13a] | 3/3
Cc1cccc(C)c1OCCN(C)CC(O)c1ccccc1.Cl (racemic) [Compound 22] | 2/2
Cc1ccc(C)c(OCCNC(C)CO)c1 (stereo not shown) [Compound 6] | 3/3
CCC(CO)NCCOc1c(C)cccc1Cl (stereo not shown) [Compound 26] | 1/1
Cc1cccc(C)c1OCCN(C)C(C)CO.Cl (racemic) [Compound 14] | 1/1
CCC(CO)NCCOc1cccc(C)c1C (stereo not shown) [Compound 2] | 3/3
CCC(CO)NCCCOc1cccc(C)c1C (racemic) [Compound 48] | 3/3
CC[C@H](CO)NCCOc1c(C)cccc1Cl [Compound 27] | 1/1
Cc1cccc(Cl)c1OCCNC(C)(CO)CO [Compound 29] | 2/3
CC[C@@H](CO)NCCOc1cc(C)cc(C)c1C [Compound 41] | 3/3
Cc1cc(C)c(OCCN[C@H](C)CO)c(C)c1 [Compound 43] | 3/3
Cc1cc(C)c(C)c(OCCNC(C)CO)c1 (stereo not shown) [Compound 38] | 3/3
Cc1cc(C)c(C)c(OCCNCC(O)c2ccccc2)c1.Cl (stereo not shown) [Compound 42] | 3/3

###

# Test system: neurotoxicity (rotarod)
# Measurement Notes: Neurotoxicity test (TOX), rotarod, mice
# Format: in vivo
# Test Context: mice, dose 100 mg/kg b.w., time 4 h
Observable: TOX, No. of animals exhibiting motor impairment/no. of used animals

Compound | Target Or System | Reported Result
Cc1cccc(C)c1OCCNC[C@@H](C)O [Compound 10] | neurotoxicity (rotarod) | 1/3
Cc1cccc(OCCNCC(O)c2ccccc2)c1C (stereo not drawn) [Compound 4] | neurotoxicity (rotarod) | 1/4
Cc1cc(C)c(C)c(OCCNCC(O)c2ccccc2)c1.Cl (stereo not drawn) [Compound 42] | neurotoxicity (rotarod) | 4/4
CCC(CO)NCCOc1c(C)cccc1Cl.Cl (stereo not drawn) [Compound 26a] | neurotoxicity (rotarod) | 1/4
Cc1cccc(OCCCNCC(O)c2ccccc2)c1C (racemic) [Compound 49] | neurotoxicity (rotarod) | 3/4
Cc1cccc(OCCCNC(C)(C)CO)c1C [Compound 47] | neurotoxicity (rotarod) | 4/4

Data origin, for the record: patent US8633251B2
